system.name: Alpha-2C adrenergic receptor (Homo sapiens)
method: modulators of alpha2C/GIRK thallium flux, primary screen, cell-based, HEK293 alpha2C/GIRK1/2 (AID 624);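 note: slope of fluorescence ratio to pre-addition baseline per second over 15 to 24 s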
conditions.used: thallium flux BTC fluorescence, at 10 µM, actives lie on both sides
Decide using slope alone. Strictly below 0.005: 1. Equal to or above 0.005: -1.

Dear colleague, could you confirm whether slope of O=C(COC(=O)C1CC(=O)N(c2ccccc2)C1)c1ccccc1 (configuration not stated) falls below 0.005? Thanks.
-1

Bench note: check whether CCOC(=O)c1ccc(N2C(=O)CC(N3CCN(C/C=C/c4ccccc4)CC3)C2=O)cc1 (configuration not stated) shows slope below 0.005
-1

Say whether its slope is strictly beneath 0.005. Entry: `CSc1nc(N)nc(SCCS(=O)(=O)c2ccc(Cl)cc2)c1C#N`
-1

Regarding `CCOc1ccccc1C(=O)N1CCN(c2cccc(Cl)c2)CC1` , kindly confirm whether its slope is beneath 0.005.
1

is_below(slope, 0.005) for `O=S(=O)(Nc1ccccn1)c1ccc(Oc2ccccc2)cc1` ?
-1

Bench note: check whether `CC(=O)O[C@H]1CSC[C@H]1NC(=O)c1ccccc1` shows slope below 0.005
1

Take the compound `Cc1c(C(=O)NCCC2=CCCCC2)oc2ccc(S(=O)(=O)N3CCC4(CC3)OCCO4)cc12` and say whether its slope is less than 0.005.
-1

Below 0.005 on slope? Entry `O=C(NCc1ccc2c(c1)OCO2)c1cccc2c1C(=O)N(C1CCCCC1)C2`
-1

Just wondering, is slope of `Cc1oc(-c2ccccc2F)nc1CS(=O)(=O)CC(=O)NCCCN1CCc2ccccc2C1` below 0.005?
-1

Strictly below 0.005: is that where slope of `CCCCOCP(=O)(CCCC)COCCCC` sits?
-1

hey, is slope for `CN(C)S(=O)(=O)c1ccc(Oc2ccc(S(=O)(=O)N(C)C)cc2)cc1` lower than 0.005 or not?
-1

Is slope strictly under 0.005 for the entry `CN(C)c1cccc2c(S(=O)(=O)Nc3ccccn3)cccc12` ?
-1

Quick check: slope of O=C(O)C1CCCN(S(=O)(=O)c2ccc(Cl)s2)C1 (configuration not stated) under 0.005?
-1

Is slope strictly under 0.005 for the entry CC(C)C(NC(=O)c1ccccc1NC(=O)c1ccco1)C(=O)O (configuration not stated) ?
-1

Answer whether the compound CCOC(=O)C(C)Sc1nnc(Cc2cc(=O)[nH]c(=O)[nH]2)n1-c1ccc(Cl)cc1 (configuration not stated) has slope strictly less than 0.005
-1

Field: below-cutoff. Rule: recorded slope strictly less than 0.005. Subject: `Cc1ccccc1-n1c(=O)cc(N2CCN(C(=O)c3ccco3)CC2)[nH]c1=O`
-1

Hi there! Is slope for Cc1c(NC(=O)C(C)OC(=O)c2cc3c4ccccc4n(C)c3s2)c(=O)n(-c2ccccc2)n1C (configuration not stated) below 0.005, do you know?
1

Is the reported slope for CCSc1cc(C2C(C(=O)OC)=C(C)NC3=C2C(=O)CCC3)c(C)o1 (configuration not stated) strictly below 0.005?
1

is_below(slope, 0.005) for `Cc1ccc(-n2ncc3c(=O)n(CC(=O)NCc4ccco4)cnc32)cc1` ?
-1

Regarding `CCc1ccccc1NC(=O)CSc1ncn[nH]1` , kindly confirm whether its slope is beneath 0.005.
1

Please let me know if `CCOc1ccc(NC(=O)Cn2nnc(-c3ccccc3F)n2)cc1` shows slope below 0.005.
-1

---

Answer each item with its documented fluorescence slope.
system.name: Voltage-gated potassium channel subunit beta-2 (Rattus norvegicus) (UniProt P62483)
Sequence (P62483 whole entry, looked up): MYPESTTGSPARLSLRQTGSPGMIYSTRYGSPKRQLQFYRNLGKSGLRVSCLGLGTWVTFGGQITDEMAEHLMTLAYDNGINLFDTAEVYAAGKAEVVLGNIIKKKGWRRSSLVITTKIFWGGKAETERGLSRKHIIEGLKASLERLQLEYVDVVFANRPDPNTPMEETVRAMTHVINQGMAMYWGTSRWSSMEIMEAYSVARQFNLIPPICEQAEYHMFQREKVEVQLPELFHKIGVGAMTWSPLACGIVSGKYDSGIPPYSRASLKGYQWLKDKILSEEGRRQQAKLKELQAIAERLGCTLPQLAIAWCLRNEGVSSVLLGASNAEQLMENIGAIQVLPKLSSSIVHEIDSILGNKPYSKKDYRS
method: KvBeta enzyme negative modulators, primary screen, biochemical, NADPH fluorescence (AID 622);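 note: slope of raw intensity against log time taken from 70 to 1610 s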
conditions.used: recombinant KvBeta, 4-cyanobenzaldehyde reduction, at 10 µM, stronger effect = higher value
Just the number, please, no unit after it.

Would you mind telling me what fluorescence slope value was observed for CN(C)c1ccc(CNCCC2(O)CCOC(C)(C)C2)cc1 (centres undefined) ?
-0.472

Could you tell me which fluorescence slope is on file for `Cc1ccc(S(=O)(=O)N2CCN(S(=O)(=O)N(C)C)CC2)cc1` ?
-0.518

Param item = `O=C(NCc1ccco1)C1(S(=O)(=O)c2ccc(Cl)cc2)CC1` ; retrieve measured fluorescence slope.
-0.639

Recorded fluorescence slope of `CC1(C)Cc2c(C#N)c(N3CCN(C(=O)c4ccccc4)CC3)nc(-c3ccco3)c2CS1` , please.
-0.401

---

system.name: Muscarinic acetylcholine receptor M4 (Homo sapiens) (UniProt P08173)
Sequence (P08173 whole entry, looked up): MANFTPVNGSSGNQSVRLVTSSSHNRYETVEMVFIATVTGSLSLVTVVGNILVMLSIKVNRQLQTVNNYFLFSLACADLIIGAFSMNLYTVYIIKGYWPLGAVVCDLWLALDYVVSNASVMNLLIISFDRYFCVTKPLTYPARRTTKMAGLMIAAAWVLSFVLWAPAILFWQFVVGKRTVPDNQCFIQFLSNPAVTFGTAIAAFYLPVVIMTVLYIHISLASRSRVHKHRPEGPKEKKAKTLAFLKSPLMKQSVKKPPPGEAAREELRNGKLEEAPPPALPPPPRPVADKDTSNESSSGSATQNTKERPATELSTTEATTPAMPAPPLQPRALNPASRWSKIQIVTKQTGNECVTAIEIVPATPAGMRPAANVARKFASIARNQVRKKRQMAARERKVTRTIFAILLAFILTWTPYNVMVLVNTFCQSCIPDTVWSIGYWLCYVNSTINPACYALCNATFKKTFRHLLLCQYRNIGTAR
method: compounds altering M4/GIRK thallium flux, either direction, primary screen, M4 allosteric agonist project, cell-based, HEK293 M4/GIRK, BTC-AM (AID 625);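 note: thallium influx through GIRK channels coupled to M4 in HEK293 cells with BTC-AM dye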
conditions.used: at 10 µM, actives lie on both sides
assay.readout: fluorescence slope
Returns: the value as a bare number; no unit string appended.

# query: fluorescence slope of entry O=C1CC(c2ccccc2)n2nc(N3C(=O)c4ccccc4C3=O)nc2N1 (configuration not stated)
0.00457

GET /values?readout=fluorescence slope&item= Cc1ccc(CNC(=O)c2cc3c(=O)n4ccccc4nc3n(CC3CCCO3)c2=N)cc1 (configuration not stated)
-0.000734

// returns reported fluorescence slope for input COCCCNc1nc2c(c(=O)[nH]c(=O)n2C)n1CC(O)COc1ccccc1 (configuration not stated)
0.00457

Can you share its fluorescence slope? I mean this compound: CCC1CC2(C)NC(=O)c3c(sc4c3CC(C)(C)OC4)N2C1=O (configuration not stated)
0.00496

Which fluorescence slope is reported for this compound? `O=S(=O)(/C=C/c1ccccc1)Nc1ccc2c(c1)OCO2`
0.00384

Look up fluorescence slope for this compound: `O=C(Nc1ncccc1Cl)c1cccc(F)c1`
0.0047

Bench note: what fluorescence slope did `COc1ccc(N2CC(=O)N(c3ccc(OC)c(OC)c3)CC2=O)cc1OC` show?
0.00438

Give its fluorescence slope value. Item: COc1ccccc1-n1c(N)c(C(=O)NCC2CCCO2)c2nc3ccccc3nc21 (configuration not stated)
0.00576

Fill in the blank: the reported fluorescence slope of `CC(=O)CCn1c(=O)n(CCC(C)=O)c(=O)n(CCC(C)=O)c1=O` is ____.
0.00631

Entry `COc1cccc(CNc2ncc(Br)cc2Br)c1O` has what fluorescence slope?
0.0052

Dear colleague, I am looking for the recorded fluorescence slope of the following compound: CCOC(=O)c1[nH]c2ccc(OC)cc2c1NC(=O)CCN1CCCC(C)C1 (configuration not stated)
0.00513

Recorded fluorescence slope for `Cc1ccc(Cn2ncc3c(N4CCOCC4)ncnc32)cc1` , please?
0.00641

Query (compound): `O=C(Nc1ccccn1)c1ccc(=O)[nH]n1` ; field requested: fluorescence slope
0.00627

Form field: reported fluorescence slope of CC(=O)C1=C(O)C(=O)N(c2ccc(S(N)(=O)=O)cc2)C1c1ccccc1F (configuration not stated)
0.00408

What does the data say about its fluorescence slope? Entry: `c1ccc2c(N3CCCCC3)nc(N3CCCCC3)nc2c1`
0.00468

Field request: fluorescence slope | item: `CCOC(=O)CSc1nc(N)c(C(=O)Nc2ccc(N(C)C)cc2)s1`
0.00383

Data request, read-out fluorescence slope, for `CN(CCCCCC(=O)/C=N/O)Cc1ccccc1`
0.00525

---

What inhibition of aggregation was measured for each of the following?
method: inhibitors of mutant huntingtin aggregation, primary screen, imaging, exon1htt(103Q)mCFP cells, high-content imaging (AID 483);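 note: compound exposure lasted 3 days before fixation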
conditions.used: exon1htt(103Q)mCFP cell line, aggregate imaging, at 2 µM; stronger effect = higher value
// note: answer is a bare numeric in %

What measured inhibition of aggregation goes with `O=C(c1ccc2c(c1)OCO2)N1CCCN(C(=O)c2ccc3c(c2)OCO3)CC1` ?
-1.1

Reported inhibition of aggregation, molecule `Cc1noc(C)c1CSc1ccccc1C(=O)N1CCN(c2ccccc2)CC1` : ____
-3.3

What does the record list as inhibition of aggregation for `CCc1ccc(CCC(=O)Nc2ccc(C)c(C)c2)o1` ?
-4.6

For `Cc1ccc(-n2ncc(C(=O)N3CCc4ccccc4C3)c2NC(=O)c2ccco2)cc1C` , what is its reported inhibition of aggregation?
-0.3

// query inhibition of aggregation value for entry `CCOC(=O)C1CCN(c2c(N(C)Cc3ccco3)c(=O)c2=O)CC1`
3.8

Item under review: Cc1ccc(O)c(C(CC(=O)N2CCCC2)c2ccccc2)c1 (centres undefined) . Reported inhibition of aggregation?
4.1

What value of measured inhibition of aggregation is listed for `O=C(Cn1nnc(-c2ccccc2)n1)Nc1ccccc1N1CCOCC1` ?
5.4

Record request: inhibition of aggregation value, item `O=c1oc2ccccc2c(O)c1C=NCc1ccccn1`
2.3

Could you tell me which inhibition of aggregation is on file for `COc1ccc(CNc2nc(NCc3ccc(OC)cc3)n(S(C)(=O)=O)n2)cc1` ?
26

---

method: inhibitors of TNFa-induced NFkB p65 translocation, primary screen, imaging, HUVEC, MLSMR starter and 10KST1 sets (AID 438);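 note: compound added about 3h40 before a 20 min TNFalpha stimulation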
conditions.used: HUVEC TNFa-induced p65 nuclear translocation; measured here: nuclei count (cytotoxicity indicator), at 2.08 µM
// label = 1.0 if cell count is not less than 600, otherwise 0.0

Dear colleague, could you confirm whether `Cc1ccc(C)c(S(=O)(=O)n2cnc3ccccc32)c1` has cell count at or above 600?
0.0

Check this molecule for cell count at or above 600: `Cc1nn(C)c(C)c1CN(C)C(=O)c1cc2nc(-c3ccco3)cc(C(F)(F)F)n2n1`
0.0

Item `Cc1ccccc1Nc1cc2ccccc2c(=O)[nH]1` with cell count of 600 or above?
0.0

State whether the measured cell count reaches 600, counting equality as reaching it, for `COc1ccc(N2CCN(CCNC(=O)CCS(=O)(=O)c3cccc4nsnc34)CC2)cc1`
1.0

Quick check: does `c1coc(Cn2nnnc2CN2CCN(C3CCCC3)CC2)c1` have cell count greater than or equal to 600?
0.0

Is cell count at least 600? Consider `COc1ccc(C(C)=O)c(OC(=O)c2ccc(OC)c(OC)c2)c1`
0.0

Has `CCc1nc2n[nH]c(N)c2c2c1CSC(C)(C)C2` a recorded cell count greater than or equal to 600?
1.0

Given `CCn1c(C(=O)N2CCC(C(=O)N3CCN(c4ccccn4)CC3)CC2)cc2sccc21` , state whether its cell count is at least 600.
1.0

Does cell count meet or surpass 600 for COc1ccccc1-n1c(N)c(C(=O)NCC2CCCO2)c2nc3ccccc3nc21 (centres undefined) ?
1.0

Quick check: does `C[C@H](NC(=O)NCc1cccs1)C(=O)O` have cell count greater than or equal to 600?
0.0

Record `CCOC(=O)C1CCN(C(=O)C2(NC(=O)Nc3ccccc3Cl)CCCCC2)CC1` ; criterion: cell count no lower than 600. Met?
0.0

Decide: is the reported value of cell count for CCOc1ccccc1C1C(C(=O)Nc2ccc(OC)cc2)=C(C)Nc2nc(CCCO)nn21 (centres undefined) equal to or greater than 600?
1.0

I'd appreciate it if you could say whether `CCOc1ccc(N=C2C(=O)N(CN3CCOCC3)c3ccccc32)cc1` has cell count at least equal to 600.
1.0

Does cell count meet or surpass 600 for `COc1cc(Br)cc(CN2CCN(C/C=C/c3ccccc3)CC2)c1O` ?
0.0

Form field: cell count at least 600? Entry: CC1CCCCC1NC(=O)Cn1nnc(-c2ccc(Cl)cc2)n1 (centres undefined)
0.0

State whether the measured cell count reaches 600, counting equality as reaching it, for `Cc1ccc2cc(CNC(C)C)c(=O)[nH]c2c1`
0.0

Is cell count for `O=C(NCc1ccc2c(c1)OCO2)c1ccccn1` at or above 600?
0.0

Would you say `COc1ccc(-c2nc3cc(NC(=O)Cc4ccc(OC)c(OC)c4)ccc3o2)cc1` shows cell count at minimum 600?
0.0

hey, is cell count for this one >= 600? `O=C(COc1cccc(Oc2ccccc2)c1)Nc1ncccn1`
1.0
